Target sequence: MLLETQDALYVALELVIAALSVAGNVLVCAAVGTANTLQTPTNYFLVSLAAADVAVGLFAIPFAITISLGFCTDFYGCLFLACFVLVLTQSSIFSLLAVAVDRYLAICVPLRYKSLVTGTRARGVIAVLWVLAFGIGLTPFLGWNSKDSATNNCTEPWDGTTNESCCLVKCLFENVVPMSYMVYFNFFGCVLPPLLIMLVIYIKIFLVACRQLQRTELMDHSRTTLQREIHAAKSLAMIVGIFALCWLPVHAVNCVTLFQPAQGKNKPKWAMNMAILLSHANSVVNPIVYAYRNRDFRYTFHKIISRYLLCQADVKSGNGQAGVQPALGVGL
Here's a roundup of pKi values tested on the protein given by its sequence, taken from various published works.
Numbers only, as −log10 of the molar value.

- molecule: "CN(C)c1nc(-c2nccs2)c2sccc2n1"
  recordedNumber: 5.81

Report pKi for every entry below.
1. CCCn1c(=O)c2[nH]c(-c3cnn(Cc4nc(-c5cccc(OC)c5)no4)c3)nc2n(CCC)c1=O
2. CCOC(=O)C1=C(C)N(C)C(=O)NC1c1ccoc1 (racemic)

-- reply
1: 7.09; 2: 5.37

----------
Here's a roundup of log10 Ki values tested on the protein given by its sequence, taken from various published works.
Protein target, amino acids: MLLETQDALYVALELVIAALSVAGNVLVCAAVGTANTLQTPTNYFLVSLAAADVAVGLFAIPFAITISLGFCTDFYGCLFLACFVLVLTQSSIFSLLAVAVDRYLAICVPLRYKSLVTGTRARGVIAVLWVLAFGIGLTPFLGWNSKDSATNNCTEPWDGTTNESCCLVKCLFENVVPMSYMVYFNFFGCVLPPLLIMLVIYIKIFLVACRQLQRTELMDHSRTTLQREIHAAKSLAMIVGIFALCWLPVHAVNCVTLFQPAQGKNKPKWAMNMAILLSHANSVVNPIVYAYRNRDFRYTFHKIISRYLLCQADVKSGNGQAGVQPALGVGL
Hi team, quick reminder: these entries are log10 of Ki (nM).

Here is how some compounds turned out for log10 Ki.
- compound: "CCCn1c(=O)c2[nH]c(-c3ccc(OCC(=O)NCc4ccccc4)cc3)cc2n(CCC)c1=O"
  log10 Ki: 0.50
- compound: "CC[C@@H]1CN2C(=O)N(C)c3nc(-c4ccccc4)[nH]c3C2=N1"
  log10 Ki: 3.57
- compound: "CCCn1c(=O)[nH]c2nc(-c3cnn(Cc4ccccc4)c3)[nH]c2c1=O"
  log10 Ki: 1.11
- compound: "CCOC(=O)C1=C(C)N(C)C(=O)NC1c1ccco1 (racemic)"
  log10 Ki: 3.82

Now look at this entry.
-- ask log10 Ki lookup needed for CCCn1c(=O)c2nc(-c3ccc(NC(C)=O)cc3)[nH]c2n(CCC)c1=O , thanks.
-- reply 1.56

----------
Here's a roundup of pKi values tested on Adenosine receptor A2b (Homo sapiens, UniProt P29275), taken from various published works.
One number for each entry, as −log10 of the molar value.

Here is how some molecules turned out for pKi.
- molecule: "CCn1c(=O)c2nc[nH]c2n(C)c1=O"
  measurementType: "pKi"
  recordedNumber: 5.79
- molecule: "CC1=C(C(=O)OC(C)C)C(c2ccon2)n2c(nc3ccccc32)N1 (racemic)"
  measurementType: "pKi"
  recordedNumber: 6.14

Report pKi for every entry below.
1. CCCn1c(=O)[nH]c2nc(-c3cnn(Cc4cccc(C(F)(F)F)c4)c3)[nH]c2c1=O
2. CCC(=O)Nc1nc(-c2ccccc2)cc(-c2ccccc2)n1
3. COc1ccc(NC(=O)c2coc3ccccc3c2=O)cc1OC

-- reply
8.10
7.37
5.19
